# Target Desc: Gal6S(b1-4)GlcNAc
# Measurement Protocol: glycan array binding signal (z-score within array); higher = stronger binding
# Assay Conditions: glycan notation: IUPAC condensed, linker removed
This is one part of a sample in which the strongest signals are shown more often than they occur.
Assay Readout: glycan array binding signal (z-score)

Binder: Epa13 (Candida glabrata) (protein) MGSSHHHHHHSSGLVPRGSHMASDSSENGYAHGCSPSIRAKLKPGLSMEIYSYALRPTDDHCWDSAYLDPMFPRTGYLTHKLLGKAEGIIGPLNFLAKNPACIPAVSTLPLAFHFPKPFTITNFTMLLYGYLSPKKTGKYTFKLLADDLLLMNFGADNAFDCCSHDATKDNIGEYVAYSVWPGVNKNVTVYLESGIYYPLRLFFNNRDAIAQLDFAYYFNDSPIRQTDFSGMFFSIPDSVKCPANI
Quantitative Result: 0.111
//
Binder: Pwp4 (Candida glabrata) (protein) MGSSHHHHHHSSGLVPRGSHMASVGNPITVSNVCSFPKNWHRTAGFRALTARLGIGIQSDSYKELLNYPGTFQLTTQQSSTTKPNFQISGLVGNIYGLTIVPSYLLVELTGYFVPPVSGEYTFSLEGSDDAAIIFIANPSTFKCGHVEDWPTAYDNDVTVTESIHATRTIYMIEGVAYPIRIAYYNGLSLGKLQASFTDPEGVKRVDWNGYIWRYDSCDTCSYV
Quantitative Result: -0.68
//
Binder: SBD-G4S3-SBD (protein) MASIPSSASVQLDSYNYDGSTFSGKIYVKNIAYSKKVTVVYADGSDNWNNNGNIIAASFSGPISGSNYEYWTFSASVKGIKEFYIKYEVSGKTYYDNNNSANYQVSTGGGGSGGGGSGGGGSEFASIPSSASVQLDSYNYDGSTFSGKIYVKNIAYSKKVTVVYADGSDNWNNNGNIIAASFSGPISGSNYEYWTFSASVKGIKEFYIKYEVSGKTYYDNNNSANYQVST
Quantitative Result: 4.01
//
Binder: Epa1to9 (Candida glabrata) (protein) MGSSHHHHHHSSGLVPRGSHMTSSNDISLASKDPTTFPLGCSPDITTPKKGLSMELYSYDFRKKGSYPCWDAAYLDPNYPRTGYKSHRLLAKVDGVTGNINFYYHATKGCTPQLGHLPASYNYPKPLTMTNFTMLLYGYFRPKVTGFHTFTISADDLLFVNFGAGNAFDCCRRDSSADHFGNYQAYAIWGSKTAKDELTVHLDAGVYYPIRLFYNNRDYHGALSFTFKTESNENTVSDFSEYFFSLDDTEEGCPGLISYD
Quantitative Result: 4.98
//
Binder: Mg1lysM (Mycosphaerella graminicola) (protein) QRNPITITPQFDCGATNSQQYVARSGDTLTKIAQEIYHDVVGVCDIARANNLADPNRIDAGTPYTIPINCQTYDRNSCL
Quantitative Result: -0.051
//
Binder: FimA-N1 (Actinomyces oris) (protein) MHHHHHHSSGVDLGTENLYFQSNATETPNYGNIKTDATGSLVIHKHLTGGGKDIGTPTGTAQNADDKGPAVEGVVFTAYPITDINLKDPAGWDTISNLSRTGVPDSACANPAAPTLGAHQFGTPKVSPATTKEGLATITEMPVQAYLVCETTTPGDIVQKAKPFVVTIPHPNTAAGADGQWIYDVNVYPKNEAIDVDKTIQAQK
Quantitative Result: 0.396
//
Binder: PfulAvr4 (Pseudocercospora fuligena) (protein) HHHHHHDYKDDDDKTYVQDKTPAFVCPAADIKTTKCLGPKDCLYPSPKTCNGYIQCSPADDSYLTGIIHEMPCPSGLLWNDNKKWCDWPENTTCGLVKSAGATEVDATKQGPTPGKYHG
Quantitative Result: -0.128

Reference source for all entries: the supplement of paper PMC8728848
